assay: Multi-angle light scattering, molecular weight of peptide aggregates and degree of aggregation; assay type: physicochemical; settings: aggregate MW at 0.4 mg/ml peptide, 0.1 M Tris-HCl pH 7.2
Where no end group is shown, it is not given here.
The entries below come with measured MW (g/mol) values attached.

SEQ ID NO: 1-GGGGG: TM peptide of SEQ ID NO: 1 with polyglycine tail GGGGG (LLFVITLPFWAVDAVANWYFGNDD; C-terminal GGGGG tail) :: 169,700 ± 300 g/mol
SEQ ID NO: 8-PEG27: deletion mutant lacking the five N-terminal amino acid residues of SEQ ID NO: 1, with PEG27 (TLPFWAVDAVANWYFGNDD; not fully specified; also: PEG27 added) :: 34,520 ± 7,850 g/mol
SEQ ID NO: 1-PEG27: TM peptide of SEQ ID NO: 1 with hydrophilic oligomer PEG27 added; CXCR4 peptide nanoparticles (LLFVITLPFWAVDAVANWYFGNDD; not fully specified; also: PEG27 added) :: 367,100 ± 38,400 g/mol

### Prompt Entry SEQ ID NO: 1-PEG38: TM peptide of SEQ ID NO: 1 with PEG38, obtained by sequential coupling of PEG11 and PEG27 (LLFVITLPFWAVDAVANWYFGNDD; also: PEG38 added (PEG11 + PEG27)) has what MW (g/mol)?
### Response 110,500 ± 5,600 g/mol

### Prompt Here is the next substance: SEQ ID NO: 1-PEG11: TM peptide of SEQ ID NO: 1 with hydrophilic oligomer PEG11 added (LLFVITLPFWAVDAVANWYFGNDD; not fully specified; also: PEG11 added)
### Response 183,200 ± 900 g/mol

---

assay: Multi-angle light scattering, molecular weight of peptide aggregates and degree of aggregation; type: physicochemical; conditions: aggregate MW at 0.05 mg/ml peptide, 0.1 M Tris-HCl pH 7.2
Where no end group is shown, it is not given here.
The entries below come with measured MW (g/mol) values attached.

Reference set, count: 3
SEQ ID NO: 1-PEG11: TM peptide of SEQ ID NO: 1 with hydrophilic oligomer PEG11 added (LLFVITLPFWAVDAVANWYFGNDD; not fully specified; also: PEG11 added) :: 2,515,000 ± 69,000 g/mol
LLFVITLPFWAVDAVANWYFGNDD [SEQ ID NO: 1] :: 11,400,000 ± 40,000 g/mol
SEQ ID NO: 1-GGGGG: TM peptide of SEQ ID NO: 1 with polyglycine tail GGGGG (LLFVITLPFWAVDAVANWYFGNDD; C-terminal GGGGG tail) :: 4,957,000 ± 8,000 g/mol

### Prompt Entry SEQ ID NO: 1-PEG27: TM peptide of SEQ ID NO: 1 with hydrophilic oligomer PEG27 added; CXCR4 peptide nanoparticles (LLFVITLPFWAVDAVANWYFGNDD; not fully specified; also: PEG27 added) has what MW (g/mol)?
### Response 1,171,000 ± 190,000 g/mol

---

assay: Multi-angle light scattering, molecular weight of peptide aggregates and degree of aggregation; format: physicochemical; settings: aggregate MW at 0.1 mg/ml peptide, 0.1 M Tris-HCl pH 7.2
Where no end group is shown, it is not given here.
measurement type: MW (g/mol)

Reference set, count: 3
SEQ ID NO: 1-GGGGG: TM peptide of SEQ ID NO: 1 with polyglycine tail GGGGG (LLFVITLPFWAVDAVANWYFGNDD; C-terminal GGGGG tail) :: 2,041,000 ± 4,000 g/mol
SEQ ID NO: 1-PEG27: TM peptide of SEQ ID NO: 1 with hydrophilic oligomer PEG27 added; CXCR4 peptide nanoparticles (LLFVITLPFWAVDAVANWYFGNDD; not fully specified; also: PEG27 added) :: 719,400 ± 100,700 g/mol
SEQ ID NO: 1-PEG11: TM peptide of SEQ ID NO: 1 with hydrophilic oligomer PEG11 added (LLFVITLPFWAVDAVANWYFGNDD; not fully specified; also: PEG11 added) :: 1,069,000 ± 20,000 g/mol

### Prompt Entry SEQ ID NO: 1-PEG38: TM peptide of SEQ ID NO: 1 with PEG38, obtained by sequential coupling of PEG11 and PEG27 (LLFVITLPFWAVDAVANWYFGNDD; also: PEG38 added (PEG11 + PEG27)) has what MW (g/mol)?
### Response 436,100 ± 20,300 g/mol

### Prompt Here is the next substance: SEQ ID NO: 8-PEG27: deletion mutant lacking the five N-terminal amino acid residues of SEQ ID NO: 1, with PEG27 (TLPFWAVDAVANWYFGNDD; not fully specified; also: PEG27 added)
### Response 29,550 ± 4,630 g/mol

### Prompt Here is the next substance: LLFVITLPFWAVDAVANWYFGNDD [SEQ ID NO: 1]
### Response 6,906,000 ± 22,000 g/mol

Values compiled from patent US9326950B2.
